B1: glmS ribozyme (parent)
chain: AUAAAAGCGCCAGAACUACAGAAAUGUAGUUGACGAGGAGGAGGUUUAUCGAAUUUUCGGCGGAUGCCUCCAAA

Variants of: B1
assay_info: KM; higher = weaker cofactor use; RNA array
test_settings: with glucosamine-6-phosphate
# label = bin(measured KM), where bins are class 1 = under 1000 µM, class 2 = from 1000 µM up to 2000 µM, class 3 = 2000 µM and over

Consider the following illustrative entries.
1. A39U A48U | class 2
2. A6G C71U | class 2
3. U57G | class 3
4. C16G U57A | class 2
5. U30C C67U | class 1
6. C16G U45A | class 3
7. A15G C50U | class 3
8. U55A C70A | class 1
9. U47C A64U | class 1
10. C16A C67U | class 1

Q. Returns: class label. Input: C16U U55C C70U
A. class 3

Q. Returns: class label. Input: A53G G66U
A. class 2

Q. Returns: class label. Input: U31G U47A
A. class 3

Q. Returns: class label. Input: A6U A14U
A. class 1

Q. Returns: class label. Input: A15U C68U
A. class 2

Q. Returns: class label. Input: A14U A64U
A. class 3

Q. Returns: class label. Input: A12C U45A
A. class 2

Q. Returns: class label. Input: A39U G44A
A. class 1

Q. Returns: class label. Input: U45A U46G
A. class 1

Q. Returns: class label. Input: G37C C71U
A. class 1

Q. Returns: class label. Input: G29U U56G
A. class 3

Q. Returns: class label. Input: G32C C58G
A. class 3

Q. Returns: class label. Input: U30G C68G
A. class 1

Q. Returns: class label. Input: U30A G41A
A. class 3

Q. Returns: class label. Input: C11U U54A
A. class 2

Q. Returns: class label. Input: G29C C68U
A. class 1

Q. Returns: class label. Input: G13A A15G
A. class 2
